Entries and their measured Ka follow.
Target: T1, recombinant OX40 protein with a His tag (Cat: 10481-H08H, Sino Biological) (UniProt P43489 29-216)
T1 construct: Bought protein; also called OX40-His (bought); not shown: His tag
T1 sequence (looked up): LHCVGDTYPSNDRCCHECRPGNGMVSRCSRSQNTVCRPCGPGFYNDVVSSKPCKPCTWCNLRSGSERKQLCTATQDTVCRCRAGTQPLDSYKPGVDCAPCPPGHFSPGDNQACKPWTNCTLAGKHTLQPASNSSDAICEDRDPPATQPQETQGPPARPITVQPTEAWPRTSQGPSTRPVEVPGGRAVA
Assay: SPR, BIAcore T-200; antibody captured by anti-human IgG, OX40-His flowed; Mean
Kindly answer with a numeric value in M⁻¹, unit omitted.

Completed entries (count: 2):
[[record]]
binder = "445-3 IgG4 (antibody, V domains shown) VH: QVQLVQSGAEVKKPGSSVKVSCKASGYKFTSYIIHWVRQAPGQGLEWMGYINPYNEGTRYNQKFQGRVTLTADKSTSTAYMELSSLRSEDTAVYYCARGYYGSSYAMDYWGQGTTVTVSS VL: DIQMTQSPSSLSASVGDRVTITCRASQGISNYLNWYQQKPDGAIKLLIYDASTLYSGVPSRFSGSGSGTDFTLTISSLQPEDFATYYCQQYSKLPYTFGGGTKVEIK"
readout = "Ka"
quantitative_readout = "1e+08"

[[record]]
binder = "ch445 (antibody, V domains shown, also called Mu445 variable domains fused to human IgG1wt/kappa constant regions) VH: EVQLQQSGPELVKPGASVKMSCKASGYKFTSYIIHWVKQKPGQGLEWIGYINPYNDGTRYNEKFKGKATLTSDKSSSTAYMEYSSLTSEDSAVYYCARGYYGSSYAMDYWGQGTSVTVSS VL: DIQMTQTTSSLSASLGDRVTISCSASQGISNYLNWYQQKPDGTIKLLIYDTSTLYSGVPSRFSGSGSGTDYFLTISNLEPEDIATYYCQQYSKLPYTFGGGTKLEKK"
readout = "Ka"
quantitative_readout = "1.41e+08"


Reported Ka, binder 445-2 (antibody, V domains shown) VH: QVQLVQSGAEVKKPGSSVKVSCKASGYKFTSYIIHWVRQAPGQGLEWMGYINPYNEGTRYAQKFQGRVTLTADKSTSTAYMELSSLRSEDTAVYYCARGYYGSSYAMDYWGQGTTVTVSS VL: DIQMTQSPSSLSASVGDRVTITCSASQGISNYLNWYQQKPGKAIKLLIYDASTLYSGVPSRFSGSGSGTDFTLTISSLQPEDFATYYCQQYSKLPYTFGGGTKVEIK : ____
7.5e+07

Now consider 445-3 (antibody, V domains shown) VH: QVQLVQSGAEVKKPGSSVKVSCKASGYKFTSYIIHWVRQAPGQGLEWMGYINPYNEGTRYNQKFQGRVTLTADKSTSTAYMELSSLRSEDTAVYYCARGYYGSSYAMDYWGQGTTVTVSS VL: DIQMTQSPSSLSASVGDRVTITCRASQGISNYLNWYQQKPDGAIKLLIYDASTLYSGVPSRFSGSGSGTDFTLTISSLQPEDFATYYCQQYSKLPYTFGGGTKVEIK and answer again.
1.06e+08

Now consider 445-1 (antibody, V domains shown) VH: QVQLVQSGAEVKKPGSSVKVSCKASGYKFTSYIIHWVRQAPGQGLEWMGYINPYNDGTRYNQKFQGRVTLTSDKSTSTAYMELSSLRSEDTAVYYCARGYYGSSYAMDYWGQGTTVTVSS VL: DIQMTQSPSSLSASVGDRVTITCSASQGISNYLNWYQQKPGKAIKLLIYDTSTLYSGVPSRFSGSGSGTDYTLTISSLQPEDFATYYCQQYSKLPYTFGGGTKVEIK and answer again.
5.9e+07
